Here the recorded EC50 CreLuc hNPY2R 0.5% hP is given for each entry.
- Target of assay: T1, human neuropeptide Y2 receptor (human, UniProt P49146 1-381)
- T1 sequence (looked up): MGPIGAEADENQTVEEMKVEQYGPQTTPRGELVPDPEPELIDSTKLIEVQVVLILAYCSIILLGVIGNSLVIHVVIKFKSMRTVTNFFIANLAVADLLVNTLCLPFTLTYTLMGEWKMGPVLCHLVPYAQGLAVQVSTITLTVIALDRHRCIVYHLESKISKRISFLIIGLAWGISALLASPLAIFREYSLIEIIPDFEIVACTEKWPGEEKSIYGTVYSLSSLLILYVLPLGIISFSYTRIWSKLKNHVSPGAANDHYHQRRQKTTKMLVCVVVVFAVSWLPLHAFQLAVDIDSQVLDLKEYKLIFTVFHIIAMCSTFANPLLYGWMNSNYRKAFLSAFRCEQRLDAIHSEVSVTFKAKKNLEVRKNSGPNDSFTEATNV
- Experiment: cell-based or functional assay
Starred links: 1 amine or outer side, 2 acyl side, 3 side chain; linkers in the order of their positions; H or OH if unused. Non-standard residues stand in square brackets, D forms with d. Groups on a side chain read outwards from the residue. No end group written: not given here. *: point of attachment. C20 diacid = O=C(O)CCCCCCCCCCCCCCCCCCC(=O)*; C18 diacid = O=C(O)CCCCCCCCCCCCCCCCC(=O)*; γGlu = O=C(O)[C@H](CCC(=O)[*:2])N[*:1]; εLys = N[C@@H](CCCCN[*:1])C(=O)[*:2]; AEEA = NCCOCCOCC(=O)O; Aib = CC(C)(N)C(=O)O; Ahx = NCCCCCC(=O)O
Kindly format the answer as number then unit.

Input line: Requested field: EC50 CreLuc hNPY2R 0.5% hP. Item: Y[Aib]EGTFTSDYSI[Aib]LEKQAQ[Aib]EFVEWLIK([AEEA-AEEA-γGlu-γGlu-γGlu-C18 diacid])GGPSSGASLRHYYNWLTRQRY-NH2 [Compound 171]
Output line: 7.51 nM

Input line: Which EC50 CreLuc hNPY2R 0.5% hP is listed for Y[Aib]EGTFTSDYSI[Aib]LEKQAQ[Aib]AFVQWLIK([Ahx-γGlu-γGlu-γGlu-γGlu-γGlu-γGlu-C18 diacid])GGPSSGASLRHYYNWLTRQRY-NH2 [Compound 139] ?
Output line: 18.3 nM

Input line: Given the binder Y[Aib]EGTFTSDYSI[Aib]LEKQAQ[Aib]AFVEWLIK([εLys-γGlu-γGlu-γGlu-γGlu-γGlu-C18 diacid])GGPESGASLRHYYNWLTRQRY-NH2 [Compound 152] , what is its reported EC50 CreLuc hNPY2R 0.5% hP?
Output line: 12.6 nM

Input line: Looking for the measured EC50 CreLuc hNPY2R 0.5% hP of Y[Aib]EGTFTSDYSI[Aib]LEEQAQ[Aib]AFVEWLIK([εLys-γGlu-γGlu-γGlu-γGlu-C20 diacid])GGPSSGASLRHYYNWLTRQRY-NH2 [Compound 97] , can you help?
Output line: 14.9 nM

# input for lookup
Input line: Which EC50 CreLuc hNPY2R 0.5% hP value belongs to Y[Aib]EGTFTSDYSI[Aib]LEKQAQ[Aib]AFVQWLIK([εLys-γGlu-γGlu-γGlu-γGlu-γGlu-C20 diacid])GGPSEPASLRHYYNWLTRQRY-NH2 [Compound 169] ?
Output line: 10.3 nM

Data origin: patent US20240247080A1
